Sourced from patent US20250332173A1

# Tested on: MYB mRNA
# assay-method-text: RT-qPCR splicing assay, MYB canonical junction (CJ) and alternative junction (AJ) mRNA
# Format: cell-based, human
# study-conditions: Homo sapiens; increase in MYB alternative junction (AJ) mRNA, RT-qPCR; read-out: MYB AJ AC50
Quick list: AC50 per entry.

For orientation, consider the following solved cases.
Cn1cc2cc(-c3cc(F)c4c(=O)n(C5CCNCC5)ccc4c3)cc(C#N)c2n1 = < 100 nM
Cc1cn2cc(-c3cc(F)c4c(=O)n([C@H]5CCN[C@H](C)C5)cnc4c3)cc(F)c2n1 = < 100 nM

Looking for the measured AC50 of Cc1cc(-c2cc3ccn(C4CCN(C5CC5)CC4)c(=O)c3cn2)cc2cn(C)nc12 , can you help?
1000 to 10000 nM

Looking for the measured AC50 of C[C@H]1C[C@@H](n2ccc3nc(-c4cc5cn(C)nc5cc4O)ncc3c2=O)CCN1 , can you help?
100 to 1000 nM

Looking for the measured AC50 of Cc1cn2nc(-c3ccc4c(c3)CCN(C3CCNCC3)C4=O)cc2c(C)n1 , can you help?
100 to 1000 nM

Looking for the measured AC50 of Cc1cn2cc(-c3ncc4c(=O)n(C56CCC(N)(CC5)C6)ccc4n3)cc(F)c2n1 , can you help?
100 to 1000 nM

====

# System: HTT
# assay-method-text: HiBiT protein abundance assay, HTT HiBiT K562 cell line
# Type: cell-based, human
# study-conditions: HiBiT K562 cell line, 24 hours, top dose 10 μM; read-out: Effect on protein abundance, HTT (IC50 category)
Quick list: IC50 per entry.

Cc1cn2nc(-c3cc(F)c4c(=O)n(C5CCN(CCF)CC5)ncc4c3)cc(C)c2n1 = < 100 nM
CCN1CCC(n2ncc3cc(-c4cc(C)c5nc(C)cn5n4)ccc3c2=O)CC1 = < 100 nM

Next:
Looking for the measured IC50 of Cn1cc2cc(-c3cc(F)c4c(=O)n(C5CCNCC5)cnc4c3)c(F)cc2n1 , can you help?
1000 to 10000 nM

====

# System: SMN2 mRNA
# assay-method-text: RT-qPCR splicing assay, SMN2 canonical junction (CJ) mRNA
# Format: cell-based, human
# study-conditions: Homo sapiens; canonical junction qPCR panel, Table 5; read-out: SMN2 (decrease in CJ mRNA levels, IC50)
pIC50: −log10 of the molar value.
Quick list: pIC50 per entry.

For orientation, consider the following solved cases.
Cc1c(O)c(-c2ccc3c(=O)n([C@H]4CC[C@@H](N(C)C)CC4)ccc3n2)cc2cn(C)nc12 [Compound 1485] = > 7.00
Cc1cn2nc(-c3ccc4c(=O)n([C@@H]5CCNC6(CC6)C5)ncc4n3)cc2c(C)n1 [Compound 1548] = 6.00 to 7.00
Cc1c(O)c(-c2ncc3c(=O)n(C4CCNC4)ccc3n2)cc2cn(C)nc12 (stereo in doubt) [Compound 1440] = > 7.00
Cc1c(O)c(-c2ncc3c(=O)n([C@@H]4CC[C@@H](N)C4)ccc3n2)cc2cn(C)nc12 [Compound 1476] = > 7.00
CCN1CC[C@H](n2ncc3nc(-c4cc(C)c5nc(C)cn5n4)ccc3c2=O)CC12CC2 [Compound 1531] = > 7.00
Cn1cc2cc(-c3ccc4c(=O)n([C@@H]5CCNC6(CC6)C5)ccc4n3)c(O)cc2n1 [Compound 1246] = > 7.00

Looking for the measured pIC50 of Cn1cc2cc(-c3ccc4c(=O)n(C5CCNC6(CC6)C5)ncc4n3)c(O)cc2n1 (stereo not drawn) [Compound 1306] , can you help?
> 7.00

Looking for the measured pIC50 of Cc1cn2nc(-c3ccc4c(=O)n(C5CCNCC5)ncc4n3)cc(C)c2n1 [Compound 1247] , can you help?
> 7.00
